method: modulation of TERT promoter-driven luciferase – cell-based, luciferase reporter, human, primary screen (AID 1259240)
condition description: A2780 TERT promoter luciferase reporter, 16 h; at 20 µM, fold versus average of vehicle-only wells
Listed here: items and their measured fold change.
Just the number.

>  <molecule>
CCN1C(=O)/C(=c2\sc3nc(-c4cccc(C)c4)nn3c2=O)c2cc(Br)ccc21

>  <fold change>
-1.02

$$$$
>  <molecule>
Cc1[nH]nc2c1C(c1cccs1)NC2=O (stereo unspecified)

>  <fold change>
-1.17

$$$$
>  <molecule>
Cc1csc(NC(=O)C2CCCN2S(=O)(=O)c2cccc3cccnc23)n1 (stereo unspecified)

>  <fold change>
-1.27

$$$$
>  <molecule>
CCOC(=O)c1oc2ccc(S(=O)(=O)n3nc(-c4ccc(OC)cc4OC)cc3N)cc2c1C

>  <fold change>
-1.57

$$$$
>  <molecule>
O=c1[nH]c2ncccc2c(=O)n1CCc1c[nH]c2ccccc12

>  <fold change>
-1.06

$$$$
>  <molecule>
Cc1cc(=O)oc2c1c(C)nn2-c1ccc(C(=O)O)cc1

>  <fold change>
-2.62

$$$$
>  <molecule>
O=C(Nc1nccs1)c1cc2ccccc2c(=O)s1

>  <fold change>
-1.86

$$$$
>  <molecule>
c1ccc(-c2nnc3ccc(N4CCC5(CC4)OCCO5)nn23)cc1

>  <fold change>
1.02

$$$$
>  <molecule>
CC1CCC(NC(=O)Cn2c(=O)c(C(F)(F)F)nc3ccccc32)CC1 (stereo unspecified)

>  <fold change>
-1.07

$$$$
>  <molecule>
COc1ccc(S(=O)(=O)NC(C)(C)C)cc1-c1nnc2c3ccccc3c(C)nn12

>  <fold change>
-1.62

$$$$

Item under review: Cc1cc(C)cc(N(CC(=O)NCc2cccs2)S(=O)(=O)c2c(C)[nH]c(=O)[nH]c2=O)c1 . Reported fold change? -2.11

Would you mind doing COc1ccc(NC(=O)Nc2ccc3snnc3c2)cc1OC as well? 1.08

Would you mind doing COc1cc2c(=O)c(S(=O)(=O)c3ccccc3)cn(Cc3ccccc3F)c2cc1OC as well? 1.06

Would you mind doing Cc1ccccc1Cn1nc(C)c(NC(=O)c2cc(C3CC3)on2)c1C as well? -1.04

Would you mind doing O=C(CN1C(=O)COc2ccc(S(=O)(=O)N3CCCCCC3)cc21)N1CCC2(CC1)OCCO2 as well? -1.25

Would you mind doing CC(C)C(NS(=O)(=O)c1ccc2c(c1)oc(=O)n2C)C(=O)NCc1cccs1 (stereo unspecified) as well? -1.35

Would you mind doing COCCn1c(SCC(=O)Nc2nnc(C)s2)nc2c(c1=O)SC(C)C2 (stereo unspecified) as well? 1.17

Would you mind doing CC(C)n1cnc2cc(NCc3ccccc3Cl)ccc21 as well? -2.21

Would you mind doing Cc1nn(-c2nc3ccccc3[nH]2)c(=O)c2ccccc12 as well? -14.7

Would you mind doing CC(C)NC(=O)Cn1ncc2c3ccccc3n(C)c2c1=O as well? 1.04

Would you mind doing C=CCNc1nc2c(c(=O)[nH]c(=O)n2C)n1CCOc1ccccc1 as well? -1.07

* * *

method: modulation of TERT promoter-driven luciferase – cell-based, luciferase reporter, human, primary screen (AID 1259240)
condition description: A2780 TERT promoter luciferase reporter, 16 h; at 20 µM, fold versus average of vehicle-only wells
Activity calls are given as the source filed them. No stated cut-off is given here; in the data, active means fold change mostly below about -2 (no sharp cut-off); inactive means mostly above about -1.8.
Mark one answer only. Choices: active, inactive

Example entries and their recorded answers appear below.
>  <molecule>
COc1ccc(-c2cc3ccccc3n2CC(O)CN2CCN(CCO)CC2)cc1 (centres undefined)

>  <classification>
inactive

$$$$
>  <molecule>
CC(=O)C(Sc1nc(C)nc2c1c(=O)n(C)c(=O)n2C)C(C)=O

>  <classification>
inactive

$$$$
>  <molecule>
O=c1/c(=C/c2c(F)cccc2Cl)sc2nc(-c3ccco3)nn12

>  <classification>
inactive

$$$$
>  <molecule>
Cc1cccc(CNc2nc(N)n(-c3ccccc3)n2)c1

>  <classification>
inactive

$$$$

Could you please tell me the result logged for CCOC(=O)C1CCN(c2c(NCCN(C)C)c(=O)c2=O)CC1 in this assay? inactive

Would you mind doing Cc1nc2cc(-c3ccc(Cl)cc3)nn2c(C)c1CCC(=O)O as well? active

Would you mind doing CC(C)C(NS(=O)(=O)c1cccc2nsnc12)C(=O)N1CCCCC1 (centres undefined) as well? inactive

Would you mind doing C=CCn1c(Oc2ccc(C(=O)OC)cc2)nc2c1c(=O)n(C)c(=O)n2C as well? active

Would you mind doing NC(=O)C1CCN(c2nc3ccccn3c(=O)c2/C=C2/SC(=S)N(CC(=O)O)C2=O)CC1 as well? inactive

Would you mind doing COc1nc(OCCNS(=O)(=O)c2ccc(C)cc2)nc(N(C)C)n1 as well? inactive

Would you mind doing Cc1ccc2nc(NCc3ccc(F)cc3)c3nncn3c2c1 as well? inactive

Would you mind doing CCOc1cc2c(cc1OCC)C(c1ccc(Cl)c(Cl)c1)CC(=O)N2 (centres undefined) as well? inactive

Would you mind doing COc1ccc2cc3c(N)nn(C(=O)CSc4ccncc4)c3nc2c1 as well? inactive

Would you mind doing CC(C)CNC(=O)CCN1C(=O)c2ccccc2S1(=O)=O as well? active

* * *

method: modulation of TERT promoter-driven luciferase – cell-based, luciferase reporter, human, primary screen (AID 1259240)
condition description: A2780 TERT promoter luciferase reporter, 16 h; at 20 µM, fold versus average of vehicle-only wells
Calls of active or inactive are those of the source. Cut-off read from the data, not from the text of the source: active = fold change mostly below about -2 (no sharp cut-off); inactive = mostly above about -1.8.
Mark one answer only. Choices: 1 (active), -1 (inactive)

Example entries and their recorded answers appear below.
>  <compound>
Cc1cc(S(=O)(=O)n2nc(-c3cccc(F)c3)cc2N)ccc1F

>  <classification>
-1

$$$$
>  <compound>
COc1ccc(C2CC(=O)Nc3cc(OC)cc(OC)c32)c(OC)c1 (centres undefined)

>  <classification>
-1

$$$$
>  <compound>
O=C(CCC(=O)NC1CCCC1)NNc1nc2ccccc2c2nc(-c3ccccc3)nn12

>  <classification>
-1

$$$$
>  <compound>
O=C(CSc1nc(-c2ccco2)cc(C(F)(F)F)n1)N1CCSCC1

>  <classification>
-1

$$$$
>  <compound>
COc1cc(-c2nc3sccn3c2Nc2ccc(OC)c(OC)c2)ccc1O

>  <classification>
-1

$$$$

Could you please tell me the result logged for CN(C)S(=O)(=O)N(CC(=O)Nc1ccccc1F)c1ccccc1 in this assay? -1

* * *

method: modulation of TERT promoter-driven luciferase – cell-based, luciferase reporter, human, primary screen (AID 1259240)
condition description: A2780 TERT promoter luciferase reporter, 16 h; at 20 µM, fold versus average of vehicle-only wells
The source made the active and inactive calls. Cut-off read from the data, not from the text of the source: active = fold change mostly below about -2 (no sharp cut-off); inactive = mostly above about -1.8.
quantity kind: fold change

Use the examples below as a reference point.
>  <structure smiles>
CC(C)C(NC(=O)CN1C(=O)c2ccccc2S1(=O)=O)C(C)C

>  <quantity kind>
fold change

>  <readout value>
-2.34 (active)

$$$$
>  <structure smiles>
O=C(O)COc1ccc(/C=C2/NC(=O)N(c3ccccc3)C2=O)cc1

>  <quantity kind>
fold change

>  <readout value>
-1.53 (inactive)

$$$$
>  <structure smiles>
O=C(CSc1nnc2c(n1)[nH]c1ccccc12)c1ccc(Br)cc1

>  <quantity kind>
fold change

>  <readout value>
1.22 (inactive)

$$$$
>  <structure smiles>
CS(=O)(=O)Nc1ccc(Cl)c2cccnc12

>  <quantity kind>
fold change

>  <readout value>
-2.8 (active)

$$$$

Item under review: O=C(O)CSc1ncn(-c2ccccc2)n1 . Reported fold change? -4.67 (active)

* * *

method: modulation of TERT promoter-driven luciferase – cell-based, luciferase reporter, human, primary screen (AID 1259240)
condition description: A2780 TERT promoter luciferase reporter, 16 h; at 20 µM, fold versus average of vehicle-only wells
Listed here: items and their measured fold change.
Just the number.

>  <compound>
Cc1ccc(C2CC(=O)Nc3cc4c(cc32)OCCO4)cc1Br (stereo not given)

>  <fold change>
-1.14

$$$$

Item under review: CN(C)c1nc(C(N)=O)nc(N2CCOCC2)n1 . Reported fold change? 1.62

Would you mind doing CN(C)CCN1C(=O)C(=O)/C(=C(\O)c2ccc(F)cc2)C12C(=O)N(C)c1ccccc12 (stereo not given) as well? -1.34

Would you mind doing COc1ccccc1NC(=O)Nc1ccc2c(c1)C(=O)OC2 as well? 1.33

Would you mind doing COc1cc2cc(=O)[nH]c(C)c2cc1OC as well? 1.08

* * *

method: modulation of TERT promoter-driven luciferase – cell-based, luciferase reporter, human, primary screen (AID 1259240)
condition description: A2780 TERT promoter luciferase reporter, 16 h; at 20 µM, fold versus average of vehicle-only wells
Calls of active or inactive are those of the source. No stated cut-off is given here; in the data, active means fold change mostly below about -2 (no sharp cut-off); inactive means mostly above about -1.8.
quantity kind: fold change

Use the examples below as a reference point.
>  <compound>
CCOC(=O)Cn1c(=O)oc2cc(S(=O)(=O)NCc3cccs3)ccc21

>  <fold change>
-1.2 (inactive)

$$$$
>  <compound>
CCOC(=O)C1=C(CS(=O)(=O)c2ccc(Cl)cc2)NC(=O)NC1c1ccc(OCC)cc1 (stereo not given)

>  <fold change>
1.7 (inactive)

$$$$
>  <compound>
COc1ccc(Br)cc1/C=c1\sc2nc(-c3ccco3)nn2c1=O

>  <fold change>
1.22 (inactive)

$$$$

Item under review: COCCN1C(=O)C(=O)/C(=C(\O)c2ccc(OC)cc2)C12C(=O)N(C)c1ccccc12 (stereo not given) . Reported fold change? -1.95 (inactive)
